Target: T1, HLA-A2 molecules on T2 cells (human)
T1 construct: whole, on cells; MHC class I molecule on the surface of T2 cells
Test: T2 cell-binding assay, flow cytometry of HLA-A2 on T2 cells, peptide 25 µg/mL
QUANTITY KIND: T2 Binding (mean fluorescence intensity) (MFI)
Report as a plain number; the unit MFI is understood.

BINDER: IVFEHVVFSV (Synthetic peptide, purity >95%; positions counted on the NGEP long form (L)) [NGEP peptide P855 (L)]
UNIT OF MEASURE: MFI
T2 Binding (mean fluorescence intensity): 203

T2 Binding (mean fluorescence intensity) for WLLPAAVVGT (Synthetic peptide, purity >95%; positions counted on the NGEP long form (L)) [NGEP peptide P356 (L)] ? 354

Lookup LVWEEDLKL (Synthetic peptide, purity >95%; positions counted on the NGEP short form (S)) [NGEP peptide P113 (S)] 367

All values here come from patent US20140287029A1.
